Values from patent US12227488B2

IKZF1 GFP/RFP Relative Abundance listing for selected compounds.
biological target: IKZF1 (Homo sapiens); construct: expressed in transfected cells; host or cells: Flp-In 293; experiment: Cellular degradation assay, eGFP-IKZF1Δ fusion with mCherry reporter in Flp-In 293 cells; assay type: cell-based; details: compound concentration 2.00E−07; 5 h incubation; n=1
Sequence (Q13422 83-213 isoform Q13422-7 limits assumed): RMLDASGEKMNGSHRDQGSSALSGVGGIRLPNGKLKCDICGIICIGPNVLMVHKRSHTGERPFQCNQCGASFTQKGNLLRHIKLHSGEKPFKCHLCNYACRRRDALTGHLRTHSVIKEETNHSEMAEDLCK
Sequence (Q96SW2 whole entry partner, the tested form may be a part): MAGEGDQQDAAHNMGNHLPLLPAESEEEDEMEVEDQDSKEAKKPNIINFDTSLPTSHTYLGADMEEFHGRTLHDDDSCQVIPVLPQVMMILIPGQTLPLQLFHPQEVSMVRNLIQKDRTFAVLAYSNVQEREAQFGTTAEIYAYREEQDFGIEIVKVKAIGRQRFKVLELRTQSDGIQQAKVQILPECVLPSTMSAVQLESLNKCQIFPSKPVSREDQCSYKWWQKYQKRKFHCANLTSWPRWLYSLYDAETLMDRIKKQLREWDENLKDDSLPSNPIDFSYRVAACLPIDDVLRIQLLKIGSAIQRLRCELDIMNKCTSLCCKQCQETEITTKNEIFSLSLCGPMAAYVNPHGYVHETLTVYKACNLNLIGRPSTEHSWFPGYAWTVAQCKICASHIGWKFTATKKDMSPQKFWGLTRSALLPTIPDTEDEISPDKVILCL
Sequence (Q16531 2-1140 partner limits assumed): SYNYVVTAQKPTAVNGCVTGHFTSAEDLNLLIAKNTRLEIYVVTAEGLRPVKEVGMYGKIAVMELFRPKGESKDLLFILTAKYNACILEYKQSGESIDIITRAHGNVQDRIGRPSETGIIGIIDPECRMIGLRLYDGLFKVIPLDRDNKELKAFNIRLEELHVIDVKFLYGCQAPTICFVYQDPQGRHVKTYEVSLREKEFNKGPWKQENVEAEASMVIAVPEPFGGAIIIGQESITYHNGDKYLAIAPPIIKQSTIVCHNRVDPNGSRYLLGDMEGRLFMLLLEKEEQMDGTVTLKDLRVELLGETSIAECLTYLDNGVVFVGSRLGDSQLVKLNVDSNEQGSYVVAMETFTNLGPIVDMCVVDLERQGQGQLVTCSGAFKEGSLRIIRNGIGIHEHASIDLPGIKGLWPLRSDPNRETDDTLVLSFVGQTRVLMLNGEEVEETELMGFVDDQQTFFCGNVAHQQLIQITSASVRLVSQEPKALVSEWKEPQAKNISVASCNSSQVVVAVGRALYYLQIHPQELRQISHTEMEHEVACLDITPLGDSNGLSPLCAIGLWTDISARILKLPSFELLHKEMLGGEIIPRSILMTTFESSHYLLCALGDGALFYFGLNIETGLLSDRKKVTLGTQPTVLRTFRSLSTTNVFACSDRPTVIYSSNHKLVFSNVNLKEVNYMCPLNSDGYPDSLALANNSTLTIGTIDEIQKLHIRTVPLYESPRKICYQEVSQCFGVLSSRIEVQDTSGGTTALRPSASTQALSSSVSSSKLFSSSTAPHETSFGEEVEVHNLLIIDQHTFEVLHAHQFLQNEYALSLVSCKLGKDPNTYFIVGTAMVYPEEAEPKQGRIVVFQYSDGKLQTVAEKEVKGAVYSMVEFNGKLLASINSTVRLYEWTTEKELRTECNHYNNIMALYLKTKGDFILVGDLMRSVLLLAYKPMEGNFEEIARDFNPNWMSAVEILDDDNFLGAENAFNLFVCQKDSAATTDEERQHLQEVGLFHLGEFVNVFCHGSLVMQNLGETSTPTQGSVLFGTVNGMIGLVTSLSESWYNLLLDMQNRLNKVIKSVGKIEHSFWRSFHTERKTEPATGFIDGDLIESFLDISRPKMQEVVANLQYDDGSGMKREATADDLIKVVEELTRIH
observable: IKZF1 GFP/RFP Relative Abundance

| compound | assayed.system | test.value |
| --- | --- | --- |
| Cc1ccc(CNC(=O)CCc2cccc(NC3=CC(=O)N(C4CCC(=O)NC4=O)C3=O)c2)cc1Cl (centres unmarked) | IKZF1 (Homo sapiens) | 0.120 |
| O=C(O)CCCNC1=CC(=O)N(C2CCC(=O)NC2=O)C1=O (centres unmarked) | IKZF1 (Homo sapiens) | 0.998 |
| O=C(O)CCCCNC1=CC(=O)N(C2CCC(=O)NC2=O)C1=O (centres unmarked) | IKZF1 (Homo sapiens) | 0.939 |
| Cc1ccc(NC(=O)Oc2cccc(NC3=CC(=O)N(C4CCC(=O)NC4=O)C3=O)c2)cc1Cl (centres unmarked) | IKZF1 (Homo sapiens) | 1.026 |
| CN(C)C(=O)c1ccc(NC2=CC(=O)N(C3CCC(=O)NC3=O)C2=O)cc1 (centres unmarked) | IKZF1 (Homo sapiens) | 0.904 |
| Cc1ccc(NC(=O)NCc2ccc(NC3=CC(=O)N(C4CCC(=O)NC4=O)C3=O)cc2)cc1Cl (centres unmarked) | IKZF1 (Homo sapiens) | 0.112 |
| Cc1ccc(NC2=CC(=O)N(C3CCC(=O)NC3=O)C2=O)cc1Cl (centres unmarked) | IKZF1 (Homo sapiens) | 0.349 |
| Cc1ccc(NC2=CC(=O)N(C3CCC(=O)NC3=O)C2=O)cc1C#N (centres unmarked) | IKZF1 (Homo sapiens) | 0.650 |
| O=C1CCC(N2C(=O)C=C(Nc3cccc(NC(=O)Nc4ccc(Cl)c(Cl)c4)c3)C2=O)C(=O)N1 (centres unmarked) | IKZF1 (Homo sapiens) | 0.403 |
| Cc1ccc(NC(=O)NC(C)c2cccc(NC3=CC(=O)N(C4CCC(=O)NC4=O)C3=O)c2)cc1Cl (centres unmarked) | IKZF1 (Homo sapiens) | 0.102 |
| O=C1CCC(N2C(=O)C=C(Nc3ccc4cc[nH]c4c3)C2=O)C(=O)N1 (centres unmarked) | IKZF1 (Homo sapiens) | 0.344 |
| Cc1ccc(NC(=O)CCc2cccc(NC3=CC(=O)N(C4CCC(=O)NC4=O)C3=O)c2)cc1Cl (centres unmarked) | IKZF1 (Homo sapiens) | 0.078 |
| O=C1CCC(N2C(=O)C=C(Nc3ccc(-n4ccnc4)cc3)C2=O)C(=O)N1 (centres unmarked) | IKZF1 (Homo sapiens) | 0.602 |
| CN(C)C(=O)Cc1ccc(NC2=CC(=O)N(C3CCC(=O)NC3=O)C2=O)cc1 (centres unmarked) | IKZF1 (Homo sapiens) | 0.860 |
| CCOC(=O)CN(C)C1=CC(=O)N(C2CCC(=O)NC2=O)C1=O (centres unmarked) | IKZF1 (Homo sapiens) | 1.025 |
| Cc1ccc(NC(=O)NCCc2cccc(NC3=CC(=O)N(C4CCC(=O)NC4=O)C3=O)c2)cc1C(F)(F)F (centres unmarked) | IKZF1 (Homo sapiens) | 0.100 |
| Cc1ccc(NC(=O)NCCCNC2=CC(=O)N(C3CCC(=O)NC3=O)C2=O)cc1Cl (centres unmarked) | IKZF1 (Homo sapiens) | 0.326 |
